Tested on: MS2 coat protein
measurement-description: apparent KD of MS2 coat protein; designed switch direction (-1 OFF switch, 1 ON switch): 1; higher = weaker reporter binding
run-parameters: input ligand: none
Listing of entries alongside the reported apparent KD of MS2 coat protein.
Quick reminder: number only, in nM, skip the unit.

construct-sequence | scale-unit | apparent KD of MS2 coat protein
AUUAUUAGUGCAGGAUAUGAUUAACAUGAGGAUCACCCAUGUGGUGUUGUGAGUAAGGAGAGUGAUCAGAAGGGCAUUUUUUUU [JMF's solution 21] (Eterna round: R96, puzzle: Same State NG 2) | nM | 406

We now examine a further sequence.
INPUT: Fill in reported apparent KD of MS2 coat protein for this entry: AGGGAGGAUGCAGGAUAUAUAAGACAUGAGGAUCACCCAUGUACCUCGUGGAGAAGAAAGGAGAGAUAGAAGGGUAGUGAGGAA [Default title] (Eterna round: R96, puzzle: Same State NG 2)
OUTPUT: 258

###

Test system: MS2 coat protein
measurement-description: apparent KD of MS2 coat protein; designed switch direction (-1 OFF switch, 1 ON switch): 1; higher = weaker reporter binding
run-parameters: input ligand: microRNA oligo, concentration not stated
# label = fulfilled if apparent KD of MS2 coat protein >= 50 nM else not fulfilled

construct-sequence | tested-on | category
CCGCCGGGAACCCGGCGAAAACAUGAGGAUCACCCAUGUACACAGGAUAUCGUGACAUUAACAAACGAGAAGGGUGGCCGAGAC [Lelateen] (Eterna round: R96, puzzle: Same State NG 3) | MS2 coat protein | fulfilled
UACAUACGCGGAGGAUAUGGGCGAGGCACGGAGGUCCGCGCCAAAACAUGAGGAUCACCCAUGUCCCAGAAGGCCGCACAAACU [Oreslaed] (Eterna round: R96, puzzle: Same State NG 2) | MS2 coat protein | fulfilled
GUGGUCAGACAUGAGGAUCACCCAUGUGGAAUAAAUAAGGAAAAGGAUAUCGAAUAUAGGAUAUACGAGAAGGUUUGGUUGGUG (Eterna round: R96, puzzle: Same State NG 3) | MS2 coat protein | fulfilled
GGAGCCAAGGCAGGAUAUUCAACAUGAGGAUCACCCAUGUGGGUAAUAAAGGCCAGAAGGCCUUGGGAGAAGGGCCAUGGCUCG [Xeonanis - 13 mod13] (Eterna round: R96, puzzle: Same State NG 2) | MS2 coat protein | not fulfilled

INPUT: Could you verify whether the entry CCGAUGAUAGGACAGGAUAUGACUGUCGUCACAUGAGGAUCACCCAUGUCCCGGCAAUGCCACCGUUAGAAGGGUCCCAUCUCGG [Uslainarin] (Eterna round: R96, puzzle: Same State 2) shows apparent KD of MS2 coat protein of no less than 50 nM?
OUTPUT: not fulfilled

###

Test system: K4 kissing-loop RNA reporter;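 note: bound reporter read as fluorescence of individual clusters on recovered sequencing chips by microscopy, with normalized cluster intensities fitted with a binding model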
measurement-description: apparent KD of K4 kissing-loop reporter; higher = weaker reporter binding
run-parameters: Eterna round: R107; input ligand: arginine 13.2 mM
reported-endpoint: apparent KD of K4 kissing-loop reporter (µM)
Quick reminder: number only, in µM, skip the unit.

Answered examples (4):
construct-sequence | tested-on | apparent KD of K4 kissing-loop reporter (µM)
CCUGCAGCUGUAACCGAGUGAUGCUACGGACGAGGACCGGUACGGCCGCCACUCGCCAGUGAUGUUGGUGUGGGAGGACGUAACU [KL-XTryp-A22] | K4 kissing-loop RNA reporter | 0.14
UUAGGAGUGGAAGGAUAUCCUGGUGUGGGUGAUGUUAGUGAUGUUGGAGGUGCAGUGAUGUUGCGCGGAGAAGGUCCGGUGUUGA [BDazzled - #5 - Exc. FMN B] | K4 kissing-loop RNA reporter | 0.299
AUAUGCAGGAGAAGGAGCGUCGUUGCAAGUGAUGUUUGCAAGCGAGCUUACUAUAUACGACGACAGGUAGGUCGCUCCUGCGUAA [Arg B Ex t2] | K4 kissing-loop RNA reporter | 0.0617
AAAAUAAAUAGCAGUCACGGAGUGAUGUUCCGAGGACCGGUACGGCCGCCACUCGACCAUCAUAAGAUGGAAUGGCGAGACUGCA [#SwitchBubble 21 #K4Early] | K4 kissing-loop RNA reporter | 0.135

INPUT: Fill in reported apparent KD of K4 kissing-loop reporter for this entry: AAAGAAGUAUACUUCAAGAGGUAUGCUGAUACCAGAGUCAAUUGACUCCCUUGGCAGCGGAUCGAGUGAUGUUCGUAACCUCAAA [AK3 SS Theophylline A]
OUTPUT: 0.178

INPUT: Fill in reported apparent KD of K4 kissing-loop reporter for this entry: UUCUGCAUCUCGGCCGCCACUCACUAGUGAUGUUAGUAAGGAGCGACUAGACAUGUCCCGUUAUUGAGGACCGGGAGAGGCUCUU [#13 K4 Tryptophan B Exclusion]
OUTPUT: 0.162

INPUT: Fill in reported apparent KD of K4 kissing-loop reporter for this entry: UGAUACCAGACGGCCGCCACUCCUGCAGUCAAAGACUGCUAAAAGGAAAUCGUCCAGUGAUGUUGGAGGACCGGGUCUGGUAUCU [TrypBX 14 #SwitchBubble #Palindromic #StaticStem]
OUTPUT: 0.738

###

Tested on: MS2 coat protein
measurement-description: apparent KD of MS2 coat protein; designed switch direction (-1 OFF switch, 1 ON switch): -1; higher = weaker reporter binding
run-parameters: input ligand: none
reported-endpoint: apparent KD of MS2 coat protein

Answered examples (6):
construct-sequence | apparent KD of MS2 coat protein
UAAAUUGCAAGCAGAUCCUACAUGAGGAUCACCCAUGUGCUCUGAAAUAACGCAGAAUUACUGCGAGCUCGUCUUAU [Winner reversed engineered 26] (Eterna round: R97, puzzle: Sensor, turn-off variant 1) | 94.3 nM
AAAGUGUCAGGAUAUUGUUAGUUUAGUUGUUUGUAUUAGUUCGAGAAGGGACAUGAGGAUCACCCAUGUUGUAA [Ex4 #64] (Eterna round: R97, puzzle: Exclusion 4) | 32.2 nM
AGAUCACAUGAGGAUCACCCAUGUCAGGAUAUCGUCACUGGAGCUGCGGCUCCAGUGACGAGAAGGGAUAAUUA [E1/4-A3] (Eterna round: R97, puzzle: Exclusion 1) | 52 nM
UAUUAGCAAGUAAGGUCCCACAUGAGGAUCACCCAUGUGCUCGUCUCCUCAGGUACGGAGUGGAAACUCCCGAUAUG [Sensor-V1 #93] (Eterna round: R97, puzzle: Sensor, turn-off variant 1) | 76 nM
UUGUUCCGUGUAGGAUAUUGGUCUCCCUCGGGCCGAGAAGGACAUGAGGAUCACCCAUGUAUGCUAUUAUCGCGCGUGGCGCAC [Design 93] (Eterna round: R96, puzzle: Exclusion NG 1) | 47.3 nM
UUUAGUUCAGGAUAUGUAGAUAUUAACAUGAGGAUCACCCAUGUCGAUCCUGAAUUAACUACAGAAGGGAACAUUU [Mod of Brourd 5 - Jieux - Exclusion 5] (Eterna round: R97, puzzle: Exclusion 5) | 17.8 nM

INPUT: Fill in reported apparent KD of MS2 coat protein for this entry: GAAAAGGUAGAGGAUAUUUCAGAUCAAAGCUGCAAAGAAGGCUGCACAUGAGGAUCACCCAUGUGGUCUUUAAA [Mod of Quesina 10 - Jieux - Exclusion 6] (Eterna round: R97, puzzle: Exclusion 6)
OUTPUT: 17.6 nM

INPUT: Fill in reported apparent KD of MS2 coat protein for this entry: GAUAGAGCAGGAUAUCGAGAUCCGCACAUGAGGAUCACCCAUGUUCGGUCGAAAGACCGACGAGAAGGGCUGUAUC [Omei Ex5 E7] (Eterna round: R97, puzzle: Exclusion 5)
OUTPUT: 4190 nM

INPUT: Fill in reported apparent KD of MS2 coat protein for this entry: AGUAGGUCUACCUUGGUGGAUCUGCAUUUUUGCAGGUGUACAUGAGGAUCACCCAUGUCCUCAUUUGCUCGUCUUAU [JL turnoff v2 99.30] (Eterna round: R96, puzzle: Sensor v3, turn-off variant 2)
OUTPUT: 508 nM

INPUT: Fill in reported apparent KD of MS2 coat protein for this entry: AGUUGGCGAGGAUAUACAUGAGGAUCACCCAUGUGAGAGAUACUAGUGAGGUCGAUGAGUAGAAGGCGCUGACA [Mat X3R4 m18] (Eterna round: R97, puzzle: Exclusion 3)
OUTPUT: 142 nM

INPUT: Fill in reported apparent KD of MS2 coat protein for this entry: ACAUGUGUUGUAGGAUAUAGGAUACAUGAGGAUCACCCAUGUGGAUUCAUGUCAAAGGAAGCGUCCUAGAAGGACGGCAACAUG [Ex NG2 #24] (Eterna round: R96, puzzle: Exclusion NG 2)
OUTPUT: 49.6 nM

INPUT: Fill in reported apparent KD of MS2 coat protein for this entry: GCUGGGUCAGGAUAUACAGGGUCGAAAGAUCUGUGAUACCUACAUGAGGAUCACCCAUGUAGAAGGGACUGGGC [ChP 11-04-2015 #10] (Eterna round: R96, puzzle: Exclusion 2)
OUTPUT: 18.9 nM

INPUT: Fill in reported apparent KD of MS2 coat protein for this entry: GCUGCACAUGUAGGAUAUCUGCACGUUUAGUGCAGAGAAGGACAUGAGGAUCACCCAUGUAGAUCAGCAGCAAUUAAUUUAAUU [ENG1/6-A3] (Eterna round: R96, puzzle: Exclusion NG 1)
OUTPUT: 473 nM

Where do these numbers come from? They come from the supplement of paper PMC9170038.
